Reference source: patent US20260130917A1

Catalogue of selectivity ratio readings, one per entry.
# Tested on: SARS-CoV-2 (βCoV/KOR/KCDC03/2020)
# testDetails: in vitro
# setupConditions: monkey

>  <molecule>
c1ccc(Oc2cccc(OCCCN3CCCCC3c3cccnc3)c2)cc1 (centres unmarked) [MolPort-000-829-850]

>  <selectivity ratio>
2.08

$$$$
>  <molecule>
O=C(Cn1ccc2ccc(OCc3ccccc3)cc21)NC[C@@H]1CCCN2CCCC[C@H]12 [MolPort-027-564-475]

>  <selectivity ratio>
1.85

$$$$
>  <molecule>
CCCc1cc2c3c(c(=O)oc2cc1OC(=O)CNC(=O)OCc1ccccc1)CCC3 [MolPort-002-526-563]

>  <selectivity ratio>
1.16

$$$$
>  <molecule>
CC/C=C/C/C=C/C/C=C/C/C=C/C/C=C/C/C=C\CCC(=O)O [MolPort-008-266-638]

>  <selectivity ratio>
1.29

$$$$
>  <molecule>
CC(C)(C)c1cc(CCCOC(=O)CNC2CCCCC2)cc(C(C)(C)C)c1O [MolPort-002-152-403]

>  <selectivity ratio>
1.73

$$$$
>  <molecule>
O=C(NCCc1ccccc1)c1cc2c([nH]c3ccccc32)c(CCc2ccccc2)n1 [MolPort-002-526-760]

>  <selectivity ratio>
1.63

$$$$
>  <molecule>
CC/C=C\C/C=C\C/C=C\C/C=C\C/C=C\C/C=C\CCC(=O)O [MolPort-003-932-890]

>  <selectivity ratio>
1.06

$$$$
>  <molecule>
CC(C)CCC(CCNCc1ccc(OC(C)C)cc1)C1CCOC(C)(C)C1 (centres unmarked) [MolPort-009-758-577]

>  <selectivity ratio>
1.83

$$$$
